- Test system: rodent lifetime carcinogenesis bioassay, tumor incidence TD50
- ASSAY NOTES: carcinogenic potency in animals, long-term in vivo studies, CPDB compilation (AID 1745844)
- PROTOCOL CONDITIONS: rat; strain Fischer 344; males; in feed; site: any site (literature study); lesion: several types; types named in the paper; dosed 102 weeks; study length 104 weeks
MEASURED ATTRIBUTE: TD50 (mg/kg/day)
Just the number in mg/kg/day, nothing appended.

Consider Cc1ccccc1N . Its measured TD50 is 24.4

====

- Tested on: rodent lifetime carcinogenesis bioassay, tumor incidence TD50
- ASSAY NOTES: carcinogenic potency in animals, long-term in vivo studies, CPDB compilation (AID 1745844)
- PROTOCOL CONDITIONS: rat; strain Fischer 344; females; by gavage; site: thyroid gland; lesion: follicular-cell adenoma + follicular-cell carcinoma; dosed 103 weeks; study length 104 weeks
MEASURED ATTRIBUTE: TD50

Short answer for O=CCC=O : TD50 was 252 mg/kg/day
